# SYSTEM_NAME: T1, recombinant human BTLA expressed at the cell surface of CHO cells (human, UniProt Q7Z6A9 31-289)
# T1 construct: also called BTLA-CHO cells; BTLA CHO cells
# PROTOCOL_DESCRIPTION: FACS blocking assay: antibody pre-incubated with BTLA-CHO cells, then 0.5 ug/ml biotin HVEM Ig, streptavidin-PE detection
# Method: The ability of BTLA Mabs to block binding of BTLA to HVEM was also determined by FACS, and is expressed as the concentration of anti-BTLA IgG to block half the maximal binding of HVEM Ig to 10⁵ BTLA CHO cells (IC₅₀). […] Cells were washed 2× in PBS-1% BSA, and binding of biotin HVEM Ig was detected by FACS after staining the cells with streptavidin-PE (BD Parmingen 3554061). IC₅₀ values were determined graphically using the Prism software (GraphPad Software). […]
EXPERIMENTAL_ENDPOINT: pIC50
Lab note — pIC50 values are minus log10 of concentrations in M.

See these solved cases before continuing.
INSERT INTO measurements (binder, endpoint_value) VALUES
  ('11-4C9 (antibody, V domains shown, The prefix 11- appears only on the sheets; also called 4C9 human monoclonal antibody) VH: QITLKESGPTLVKPTQTLTLTCTFSGFSLSTSGVGVAWIRQPPGKALEWLALIYWDDDKRYSPSLKSRLTITKDTSKNQVVLTMSNMDPVDTATYYCAHTRIAEVRGVIYYYYGIDVWGQGTTVTVSS VL: EIVLTQSPGTLSLSPGERATLSCRASQSVSSTYLVWYQQKPGQAPRLLIYGASSRATGIPDRFSGSGSGTDFTLTISRLEPEDFAVYYCQQYGSSWTFGQGTKVEIK', 8.99),
  ('10H6 human monoclonal antibody (antibody, V domains shown) VH: QVQLVESGGGVVQPGRSLRLSCAASGFTFSSYDMHWVRQAPGKGLEWVAAIWNDGSNKYYADSVKGRFTISRDNSKNTLYLQMNSLRAEDTAVYYCARDRITMVRGVITQYYGMDVWGQGTTVTVSS VL: DIQLTQSPSSLSASVGDRVTITCRVSQGISSYLNWYRQKPGKVPKLLIYSASNLQSGVPSRFSGSGSGTDFTLTISSLQPEDVATYYGQRTYNAPYTFGQGTKLEIK', 8.67),
  ('3C2 human monoclonal antibody (antibody, IgG1, V domains shown) VH: QVQLQESGPGLVKPSETLSLTCTISGGSISNYYWNWIRQPPGKGLEWIGYIYYSTSTKYNPSLKSRVTMSVETSKNQFSLKLSSVTAADTAVYYCARVKVYSTGWFFDYWGQGTLVTVSS VL: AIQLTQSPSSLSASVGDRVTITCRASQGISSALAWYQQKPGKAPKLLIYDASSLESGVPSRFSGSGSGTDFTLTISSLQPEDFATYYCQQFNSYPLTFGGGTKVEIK', 8.71);

Next, consider the following binder.
Give recorded pIC50. 11E2 human monoclonal antibody (antibody, IgG1, V domains shown, kappa light chain (VK L15)) VH: EVQLVESGGGVIRPGGSLRLSCAASGFTFDDYGMSWVRQAPGKGLEWVSGINWNGGSTGYAASVKGRFTISRDNAKNSLYLQMNSLRAEDSALYYCARDYYYGPGSPNYFYYAMDVWGQGTTVTVSS VL: DIQMTQSPSSLSASVGDRVTITCRASQGISSWLAWYQQKPEKAPKSLIYAASSLQSGVPSRFSGSGSGTDFTLTISSLQPEDFATYYCQQYNSYPRTFGQGTKVEIK
8.56
